# System name: pooled human IgG (human IgG1, 2, 3 and 4)
Readout type: Enzyme Activity Endpoint Assay: scIgG (ng/µL)
Number only, in ng/µL; omit the unit.

## Task # input protein: PRT-269 (protein) MVTSVWTKGVTPPTDFIYGEDVLHAPYKAGQGWYDITKTFNGKDDLLCGAATAGNMLHWWFDQNKEQIENYLKKHPEKQKINFNGEQMFDVKEAIDTKDSQLDSKLFEYFLEKAFPNLSTKHLGVFPDHVIDMFINGYRLSLLNHGPTPVKRGSKDPRGGIFDAVFTRGDQSKLLTNRHDLKNKTLKEISDLIKQELTEGKALGISHTYANVRINHVINLWGADFDAEGNLEAIAVTDSDSNASIGMKKYFVGVNSSGKVAISAKEIEEDNIGAQVLGLFTLSTGQDIWNQTN ; wanted: its Enzyme Activity Endpoint Assay: scIgG
## Result 592

Attribution: patent US20250027068
